Target: beta-catenin/TCF4 engagement (Homo sapiens, UniProt P35222)
Construct: expressed in transfected cells; host or cells: HEK293
Sequence (P35222 1-781): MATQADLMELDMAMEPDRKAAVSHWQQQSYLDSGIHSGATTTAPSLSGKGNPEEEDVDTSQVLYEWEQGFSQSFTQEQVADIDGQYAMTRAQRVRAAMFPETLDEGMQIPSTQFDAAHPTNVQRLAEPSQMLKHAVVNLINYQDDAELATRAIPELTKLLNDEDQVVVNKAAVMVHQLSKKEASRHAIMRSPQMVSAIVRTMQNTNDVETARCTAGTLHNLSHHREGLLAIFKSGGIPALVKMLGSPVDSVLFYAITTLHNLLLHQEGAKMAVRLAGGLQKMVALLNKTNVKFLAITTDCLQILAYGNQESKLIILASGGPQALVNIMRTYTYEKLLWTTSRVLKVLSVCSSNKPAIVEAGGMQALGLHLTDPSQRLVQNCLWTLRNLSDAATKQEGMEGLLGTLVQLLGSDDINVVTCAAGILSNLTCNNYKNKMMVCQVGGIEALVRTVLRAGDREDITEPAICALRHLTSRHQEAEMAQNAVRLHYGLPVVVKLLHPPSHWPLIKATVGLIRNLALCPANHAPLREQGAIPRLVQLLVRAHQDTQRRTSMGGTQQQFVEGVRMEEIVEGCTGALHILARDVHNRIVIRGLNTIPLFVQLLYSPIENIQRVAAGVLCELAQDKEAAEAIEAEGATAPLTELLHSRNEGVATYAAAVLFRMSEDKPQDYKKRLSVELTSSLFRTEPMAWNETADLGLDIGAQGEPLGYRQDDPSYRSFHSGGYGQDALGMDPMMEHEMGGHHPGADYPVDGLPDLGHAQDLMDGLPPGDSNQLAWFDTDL
Assay: Nano-BRET target engagement assay (B-cat-Halo & TCF4-Luc in HEK293 cells)
Format: cell-based
Conditions: absolute IC50; read-out: NanoBRET Abs IC50
Entries annotated with measured IC50
OBSERVATION TYPE: IC50

COMPOUND: CC(=O)N1CCC[C@]12CC=CCCCC1(CCCC=CCCCOC(=O)N3CC[C@@](C(=O)N[C@@H](Cc4ccccc4Cl)C(=O)N[C@@H](Cc4csc5ccccc45)C(=O)N[C@@H](CCC(N)=O)C(N)=O)(C3)NC(=O)[C@H](CO)NC(=O)[C@H](Cc3ccccc3)NC(=O)[C@H](C)NC(=O)[C@H](C)NC(=O)[C@H](CC(=O)O)NC(=O)[C@H](CC(=O)O)NC1=O)NC(=O)[C@H](CC1CCCCC1)NC(=O)[C@H](CC(=O)O)NC2=O (stereo partly drawn)
OBSERVATION TYPE: IC50
MEASURED RESULT: 17.6 µM
--
COMPOUND: CC(=O)N1CCC[C@]12CC=CCCCC1(CCCC=CCCCOC(=O)N3CC[C@@](C(=O)N[C@@H](Cc4ccsc4)C(=O)N[C@@H](Cc4ccc(C)c(C)c4)C(=O)N[C@@H](C)C(N)=O)(C3)NC(=O)[C@H](C(C)C)NC(=O)[C@H](Cc3ccccc3)NC(=O)[C@H](C)NC(=O)[C@H](CCC(N)=O)NC(=O)[C@H](Cc3cccc(C(=O)O)c3)NC(=O)[C@H](CC(=O)O)NC1=O)NC(=O)[C@H](CC(C)(C)C)NC(=O)[C@H](CC(=O)O)NC2=O (stereo partly drawn)
OBSERVATION TYPE: IC50
MEASURED RESULT: 2.7 µM
--
COMPOUND: CC(=O)N1CCC[C@]12CC=CCCCC1(CCCC=CCCCOC(=O)N3CC[C@@](C(=O)N[C@@H](Cc4ccsc4)C(=O)N[C@@H](Cc4csc5ccccc45)C(=O)N[C@H](CO)[C@@H](C)O)(C3)NC(=O)[C@H](Cc3ccccc3)NC(=O)[C@H](Cc3ccccc3)NC(=O)[C@H](C)NC(=O)[C@H](C)NC(=O)[C@H](CC(=O)O)NC(=O)[C@H](CC(=O)O)NC1=O)NC(=O)[C@H](CC(C)(C)C)NC(=O)[C@H](CC(=O)O)NC2=O (stereo partly drawn)
OBSERVATION TYPE: IC50
MEASURED RESULT: 9.1 µM

----------
molecular target: full-length beta-Catenin (Uniprot ID P35222) (Homo sapiens); construct: 10 nM full-length beta-Catenin (Uniprot ID P35222); assay: Fluorescence polarization IC50 (beta-catenin / 5FAM-TCF4 10-53 competition); format: binding; conditions: fluorescence polarization; read-out: beta-Catenin FP IC50

COMPOUND: CC(=O)N1CCC[C@]12CC=CCCCC1(CCCC=CCCCOC(=O)N3CC[C@@](C(=O)N[C@@H](Cc4ccsc4)C(=O)N[C@@H](Cc4csc5ccccc45)C(=O)N[C@@H](CCC(N)=O)C(N)=O)(C3)NC(=O)[C@H](CCO)NC(=O)[C@H](Cc3ccccc3)NC(=O)[C@H](C)NC(=O)[C@H](C)NC(=O)[C@H](Cc3ccc(O)cc3)NC(=O)[C@H](CC(=O)O)NC1=O)NC(=O)[C@H](CC(C)(C)C)NC(=O)[C@H](CC(=O)O)NC2=O (stereo partly drawn)
UNIT ANNOTATION: nM
IC50: 101

COMPOUND: CC(=O)N1CCC[C@]12CC=CCCCC1(CCCC=CCCCOC(=O)N3CC[C@@](C(=O)N[C@@H](Cc4ccsc4)C(=O)N[C@@H](Cc4csc5ccccc45)C(=O)N[C@@H](Cc4ccccc4)C(N)=O)(C3)NC(=O)[C@H](CC(N)=O)NC(=O)[C@H](Cc3ccccc3)NC(=O)[C@H](C)NC(=O)C(C)(C)NC(=O)[C@H]([C@@H](C)O)NC(=O)[C@H](CC(N)=O)NC1=O)NC(=O)[C@H](CC(C)(C)C)NC(=O)[C@H](CC(=O)O)NC2=O (stereo partly drawn)
UNIT ANNOTATION: nM
IC50: 267

COMPOUND: C[C@@H]1NC(=O)[C@H](C)NC(=O)[C@H](CC(=O)O)NC(=O)[C@H](CC(=O)O)NC(=O)C2(CCCC=CCCCOC(=O)N3CC[C@@](C(=O)N[C@@H](Cc4ccsc4)C(=O)N[C@@H](Cc4csc5ccccc45)C(=O)N[C@@H](CCC(N)=O)C(N)=O)(C3)NC(=O)[C@H](CC(N)=O)NC(=O)[C@H](Cc3ccccc3)NC1=O)CCCC=CCS(=O)(=O)N1CCCC1C(=O)N[C@@H](CC(=O)O)C(=O)N[C@@H](CC(C)(C)C)C(=O)N2 (single isomer, unassigned) [I-1577]
UNIT ANNOTATION: nM
IC50: 45

----------
Molecular target: full-length beta-Catenin (Uniprot ID P35222) (Homo sapiens, UniProt P35222)
Construct: 10 nM full-length beta-Catenin (Uniprot ID P35222)
Sequence (P35222 1-781): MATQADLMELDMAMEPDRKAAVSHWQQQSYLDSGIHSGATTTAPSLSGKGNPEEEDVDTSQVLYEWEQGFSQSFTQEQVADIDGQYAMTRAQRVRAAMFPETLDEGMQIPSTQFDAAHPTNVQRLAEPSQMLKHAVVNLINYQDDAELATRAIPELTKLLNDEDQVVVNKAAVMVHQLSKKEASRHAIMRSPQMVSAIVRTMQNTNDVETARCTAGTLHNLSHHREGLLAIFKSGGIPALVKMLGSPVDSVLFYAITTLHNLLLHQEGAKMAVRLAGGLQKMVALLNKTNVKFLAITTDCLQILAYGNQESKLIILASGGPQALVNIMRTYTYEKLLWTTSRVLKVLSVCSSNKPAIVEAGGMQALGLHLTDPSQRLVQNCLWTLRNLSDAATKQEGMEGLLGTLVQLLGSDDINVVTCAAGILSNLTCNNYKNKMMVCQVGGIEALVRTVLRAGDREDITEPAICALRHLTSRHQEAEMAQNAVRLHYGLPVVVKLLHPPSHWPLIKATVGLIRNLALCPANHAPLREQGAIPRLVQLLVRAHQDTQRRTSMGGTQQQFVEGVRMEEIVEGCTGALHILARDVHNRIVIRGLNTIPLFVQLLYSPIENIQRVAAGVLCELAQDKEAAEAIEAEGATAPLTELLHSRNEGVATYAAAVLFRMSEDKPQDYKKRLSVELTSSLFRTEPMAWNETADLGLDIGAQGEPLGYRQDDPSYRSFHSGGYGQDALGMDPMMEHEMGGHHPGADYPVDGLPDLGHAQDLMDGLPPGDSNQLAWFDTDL
Assay: Fluorescence polarization IC50 (beta-catenin / 5FAM-TCF4 10-53 competition)
Type: binding
Conditions: fluorescence polarization; read-out: beta-Catenin FP IC50

COMPOUND: CC[C@H](C)[C@@H]1NC(=O)[C@H](CC(=O)O)NC(=O)[C@]2(CC=CCCCC3(CCCC=CCCCCCC[C@@](C)(C(=O)N[C@@H](Cc4ccccc4)C(=O)N[C@@H](Cc4csc5ccccc45)C(=O)N[C@@H](CCC(N)=O)C(N)=O)NC(=O)[C@H](CCC(N)=O)NC(=O)[C@H](Cc4ccccc4)NC(=O)[C@H](C)NC(=O)[C@H](C)NC(=O)[C@H](CCC(=O)O)NC(=O)C[C@@H](C(=O)O)NC3=O)NC1=O)CCCN2C(C)=O (some centres unmarked) [I-673]
IC50 / nM: 5000
//
COMPOUND: CCCC[C@@H]1NC(=O)[C@H](CN(CC(=O)O)CC(F)(F)F)NC(=O)[C@H](CC(=O)O)NC(=O)C2(CCCC=CCCCOC(=O)N3CC[C@@](C(=O)N[C@@H](Cc4ccccc4Cl)C(=O)N[C@@H](Cc4csc5ccccc45)C(=O)N[C@@H](CCC(N)=O)C(N)=O)(C3)NC(=O)[C@H]([C@@H](C)O)NC(=O)[C@H](Cc3ccccc3)NC(=O)[C@H](C)NC1=O)CCCC=CC[C@]1(CCCN1C(C)=O)C(=O)N[C@@H](CC(=O)O)C(=O)N[C@@H](CC(C)(C)C)C(=O)N2 (some centres unmarked) [I-1692]
IC50 / nM: 17
//
COMPOUND: CC(=O)N1CCC[C@]12CC=CCCCC1(CCCC=CCCCOC(=O)N3CC[C@@](C(=O)N[C@@H](Cc4ccccc4Cl)C(=O)N[C@@H](Cc4csc5ccccc45)C(=O)N[C@H](CO)[C@@H](C)O)(C3)NC(=O)[C@H](CC(C)C)NC(=O)[C@H](Cc3ccccc3)NC(=O)[C@H](C)NC(=O)[C@H](C)NC(=O)[C@H](CC(=O)O)NC(=O)[C@H](CC(=O)O)NC1=O)NC(=O)[C@H](CC1CCCCC1)NC(=O)[C@H](CC(=O)O)NC2=O (some centres unmarked) [I-1307]
IC50 / nM: 21
//
COMPOUND: CC(=O)N1CCC[C@]12CC=CCCCC1(CCCC=CCCCOC(=O)N3CC[C@@](C(=O)N[C@@H](Cc4ccsc4)C(=O)N[C@H](C(=O)N[C@@H](C)C(N)=O)[C@H](C)c4ccc5ccccc5c4)(C3)NC(=O)[C@H](C(C)C)NC(=O)[C@H](Cc3ccccc3)NC(=O)[C@H](C)NC(=O)[C@H](CCC(N)=O)NC(=O)[C@H](Cc3cccc(C(=O)O)c3)NC(=O)[C@H](CC(=O)O)NC1=O)NC(=O)[C@H](CC(C)(C)C)NC(=O)[C@H](CC(=O)O)NC2=O (some centres unmarked) [I-2312]
IC50 / nM: 5
//
COMPOUND: CC(=O)N1CCC[C@]12CC=CCCCC1(CCCC=CCCCOC(=O)N3CC[C@@](C(=O)N[C@@H](Cc4ccsc4)C(=O)N[C@@H](Cc4csc5ccccc45)C(=O)N[C@@H](CCC(N)=O)C(N)=O)(C3)NC(=O)[C@H](CC(N)=O)NC(=O)[C@H](Cc3ccccc3)NC(=O)[C@H](C)NC(=O)[C@H](C)NC(=O)[C@H](CCC(N)=O)NC(=O)[C@H](CC(N)=O)NC1=O)NC(=O)[C@H](CC(C)(C)C)NC(=O)[C@H](CC(=O)O)NC2=O (some centres unmarked) [I-1567]
IC50 / nM: 182
